molecular target: MLE dsRBD1 (UniProt P24785 1-84); assay: NMR titration; Filter binding: 20 mM HEPES/NaOH pH 8.0, 150 mM NaCl, 5 mM MgCl2, on ice; ITC: 10 mM HEPES pH 8.0, 75 mM NaCl, 2.5 mM MgCl2, 1 mM b-mercaptoethanol, 20 C; NMR:; settings: protein: recombinant; tags: N-terminal His6 removed by TEV; blunt, internal A-C mismatch and G-U pairs
Sequence (P24785 1-84): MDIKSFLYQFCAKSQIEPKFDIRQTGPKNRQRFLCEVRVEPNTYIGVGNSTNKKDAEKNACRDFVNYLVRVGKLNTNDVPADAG
pKd: −log10 of the molar value.

Binder	pKd
SL7 18mer duplex (dsRNA) RNA 1: AGACGUGUAAAAUGUUGC RNA 2: GUAACGUUUUACGCGCCU	~3.33
